target.entity: Gal3S6S(b1-4)GlcNAc
measurement.notes: glycan array binding signal (z-score within array); higher = stronger binding
measurement.conditions: glycan notation: IUPAC condensed, linker removed
This excerpt belongs to a sample that is enriched for the strongest signals.

binder | glycan array binding signal (z-score)
FBG3 (Homo sapiens), Q9H4M3 (protein) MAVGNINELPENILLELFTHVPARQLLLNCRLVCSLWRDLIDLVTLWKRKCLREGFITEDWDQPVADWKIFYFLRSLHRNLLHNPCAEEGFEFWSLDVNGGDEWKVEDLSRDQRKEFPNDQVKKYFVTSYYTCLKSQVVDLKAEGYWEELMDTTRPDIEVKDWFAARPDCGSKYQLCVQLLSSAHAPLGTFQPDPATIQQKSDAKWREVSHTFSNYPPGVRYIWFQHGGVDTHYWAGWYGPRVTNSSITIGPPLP | 1.73
OGAN (protein) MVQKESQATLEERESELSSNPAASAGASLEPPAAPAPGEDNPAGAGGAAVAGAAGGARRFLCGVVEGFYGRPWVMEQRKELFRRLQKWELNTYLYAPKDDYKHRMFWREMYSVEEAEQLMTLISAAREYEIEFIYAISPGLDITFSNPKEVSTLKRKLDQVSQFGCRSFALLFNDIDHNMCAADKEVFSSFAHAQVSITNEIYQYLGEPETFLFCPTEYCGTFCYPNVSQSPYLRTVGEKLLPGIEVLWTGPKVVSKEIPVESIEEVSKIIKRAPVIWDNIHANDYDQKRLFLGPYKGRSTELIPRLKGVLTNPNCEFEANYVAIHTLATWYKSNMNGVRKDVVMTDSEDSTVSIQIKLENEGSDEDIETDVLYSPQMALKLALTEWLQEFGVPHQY | -0.035
Clec49 (Caenorhabditis elegans) (protein) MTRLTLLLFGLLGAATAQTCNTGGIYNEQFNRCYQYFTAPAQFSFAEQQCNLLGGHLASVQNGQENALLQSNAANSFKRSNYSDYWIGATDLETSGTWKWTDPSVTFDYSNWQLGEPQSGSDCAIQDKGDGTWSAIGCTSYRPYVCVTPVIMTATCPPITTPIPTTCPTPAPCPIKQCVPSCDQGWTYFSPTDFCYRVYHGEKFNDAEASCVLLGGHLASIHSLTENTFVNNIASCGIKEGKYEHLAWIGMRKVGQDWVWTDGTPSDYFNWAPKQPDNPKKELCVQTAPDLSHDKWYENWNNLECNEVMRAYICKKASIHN | -0.612
CSA (Cytisus scoparius), P29257 (protein) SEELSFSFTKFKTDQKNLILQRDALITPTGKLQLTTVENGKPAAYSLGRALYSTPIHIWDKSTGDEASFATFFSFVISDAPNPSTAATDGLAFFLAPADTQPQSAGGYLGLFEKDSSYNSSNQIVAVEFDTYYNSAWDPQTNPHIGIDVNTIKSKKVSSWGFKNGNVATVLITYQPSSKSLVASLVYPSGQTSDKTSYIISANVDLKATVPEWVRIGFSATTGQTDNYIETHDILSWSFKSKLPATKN | -0.186
Clrb (Mus musculus) (protein) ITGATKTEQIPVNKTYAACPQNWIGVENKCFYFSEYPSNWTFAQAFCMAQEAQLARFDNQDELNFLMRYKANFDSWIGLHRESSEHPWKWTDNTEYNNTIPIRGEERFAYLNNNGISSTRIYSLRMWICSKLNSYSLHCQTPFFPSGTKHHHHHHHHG | -0.099
